# system-under-test: Receptor tyrosine-protein kinase erbB-2 (Homo sapiens, UniProt P04626)
# Sequence (P04626 whole entry): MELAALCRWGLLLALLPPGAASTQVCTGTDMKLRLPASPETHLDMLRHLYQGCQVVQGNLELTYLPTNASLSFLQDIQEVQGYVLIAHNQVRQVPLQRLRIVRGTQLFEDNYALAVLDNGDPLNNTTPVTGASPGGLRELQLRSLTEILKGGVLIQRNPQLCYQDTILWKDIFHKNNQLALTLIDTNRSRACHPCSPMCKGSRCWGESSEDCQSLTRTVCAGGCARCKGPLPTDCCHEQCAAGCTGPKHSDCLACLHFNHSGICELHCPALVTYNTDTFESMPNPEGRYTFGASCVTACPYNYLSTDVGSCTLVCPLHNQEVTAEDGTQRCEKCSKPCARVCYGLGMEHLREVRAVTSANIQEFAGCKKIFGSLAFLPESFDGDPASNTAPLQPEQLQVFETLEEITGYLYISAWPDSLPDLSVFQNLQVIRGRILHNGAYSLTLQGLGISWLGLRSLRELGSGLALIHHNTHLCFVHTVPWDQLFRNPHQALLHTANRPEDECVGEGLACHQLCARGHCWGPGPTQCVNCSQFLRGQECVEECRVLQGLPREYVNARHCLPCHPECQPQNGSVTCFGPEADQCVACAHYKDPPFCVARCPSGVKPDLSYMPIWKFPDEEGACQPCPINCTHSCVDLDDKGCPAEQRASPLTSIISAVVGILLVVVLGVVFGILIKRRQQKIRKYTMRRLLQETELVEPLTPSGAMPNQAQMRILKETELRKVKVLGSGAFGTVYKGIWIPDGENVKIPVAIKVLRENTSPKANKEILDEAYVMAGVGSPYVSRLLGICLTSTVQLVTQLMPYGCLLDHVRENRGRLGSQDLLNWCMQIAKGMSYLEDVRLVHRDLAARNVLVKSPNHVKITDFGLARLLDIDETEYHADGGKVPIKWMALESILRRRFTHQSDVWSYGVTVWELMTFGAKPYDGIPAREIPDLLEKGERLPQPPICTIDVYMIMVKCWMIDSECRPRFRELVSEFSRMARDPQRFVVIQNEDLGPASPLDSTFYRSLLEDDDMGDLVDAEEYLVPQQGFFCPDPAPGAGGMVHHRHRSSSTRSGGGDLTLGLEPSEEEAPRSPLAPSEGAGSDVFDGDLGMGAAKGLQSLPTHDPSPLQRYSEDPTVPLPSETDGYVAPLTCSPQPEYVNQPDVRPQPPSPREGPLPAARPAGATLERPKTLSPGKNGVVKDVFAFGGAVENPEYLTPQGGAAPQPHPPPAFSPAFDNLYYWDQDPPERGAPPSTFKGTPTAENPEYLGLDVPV
pIC50: −log10 of the molar value.
property-measured: pIC50

### Prompt Provide the documented pIC50 with Receptor tyrosine-protein kinase erbB-2 (Homo sapiens, UniProt P04626) as the system for O=C1NC(=O)/C(=C2\CCNC(=O)c3[nH]ccc32)N1
### Response < 3.69
